Conditions: in acetone, 278.15 K
READOUT_KIND: solubility (mole fraction)
Answers are plain numbers.

Task: Given `Cc1ccc(CO)cc1` , state its recorded solubility (mole fraction).
Output: 0.226

* * *

Details: in n-butanol, 288.15 K
READOUT_KIND: solubility (mole fraction)
One number for each entry.

Task: Give the measured solubility (mole fraction) of `Cc1ccc(CO)cc1` .
Output: 0.334

* * *

Settings: in n-butanol, 278.15 K
READOUT_KIND: solubility (mole fraction)
One number for each entry.

Task: Need solubility (mole fraction) of `Cc1ccc(CO)cc1` , thanks.
Output: 0.252

* * *

Conditions: in ethyl formate, 288.15 K
READOUT_KIND: solubility (mole fraction)
Give bare numbers.

Task: Quick check: solubility (mole fraction) of `Cc1ccc(CO)cc1` ?
Output: 0.242

* * *

Settings: in ethyl formate, 293.15 K
READOUT_KIND: solubility (mole fraction)
Answers are plain numbers.

Task: Field request: solubility (mole fraction) | item: `Cc1ccc(CO)cc1`
Output: 0.303

* * *

Settings: in ethanol, 303.15 K
READOUT_KIND: solubility (mole fraction)

Task: Report solubility (mole fraction) for `Cc1ccc(CO)cc1` please.
Output: 0.508

* * *

Conditions: in acetone, 303.15 K
READOUT_KIND: solubility (mole fraction)
One number for each entry.

Task: Quick check: solubility (mole fraction) of `Cc1ccc(CO)cc1` ?
Output: 0.497

* * *

Settings: in n-butanol, 313.15 K
READOUT_KIND: solubility (mole fraction)
Answers are plain numbers.

Task: Quick one: solubility (mole fraction) for `Cc1ccc(CO)cc1` ?
Output: 0.698

* * *

Details: in dichloromethane, 308.15 K
READOUT_KIND: solubility (mole fraction)
Give bare numbers.

Task: Need solubility (mole fraction), item `Cc1ccc(CO)cc1`
Output: 0.646

* * *

Conditions: in acetonitrile, 288.15 K
READOUT_KIND: solubility (mole fraction)
One number for each entry.

Task: What does the data say about its solubility (mole fraction)? Entry: `Cc1ccc(CO)cc1`
Output: 0.287

* * *

Conditions: in n-propanol, 313.15 K
READOUT_KIND: solubility (mole fraction)
Give bare numbers.

Task: So what's the measured solubility (mole fraction) for this one? `Cc1ccc(CO)cc1`
Output: 0.674

* * *

Settings: in acetonitrile, 278.15 K
READOUT_KIND: solubility (mole fraction)
Numbers only.

Task: Recorded solubility (mole fraction) of `Cc1ccc(CO)cc1` , please.
Output: 0.162

* * *

Conditions: in 1,2-dichloroethane, 308.15 K
READOUT_KIND: solubility (mole fraction)
Numbers only.

Task: Record request: solubility (mole fraction) value, item `Cc1ccc(CO)cc1`
Output: 0.585

* * *

Details: in acetonitrile, 308.15 K
READOUT_KIND: solubility (mole fraction)
One number for each entry.

Task: Find the recorded solubility (mole fraction) belonging to `Cc1ccc(CO)cc1` and report it.
Output: 0.638

* * *

Settings: in acetone, 298.15 K
READOUT_KIND: solubility (mole fraction)
Give bare numbers.

Task: solubility (mole fraction) for `Cc1ccc(CO)cc1` ?
Output: 0.431

* * *

Details: in n-propanol, 303.15 K
READOUT_KIND: solubility (mole fraction)
One number for each entry.

Task: Find the recorded solubility (mole fraction) belonging to `Cc1ccc(CO)cc1` and report it.
Output: 0.518

* * *

Conditions: in ethanol, 278.15 K
READOUT_KIND: solubility (mole fraction)

Task: // lookup solubility (mole fraction) for `Cc1ccc(CO)cc1`
Output: 0.236
